Give pIC50 for every item shown.
- TESTED SYSTEM: KRAS G12D/RAF1 (Homo sapiens, UniProt P01116, G12D)
- Construct: His6-MBP (N, cleaved yes); made in house; host or cells: E. coli
- Sequence (P01116 with tags, fused parts or gaps isoform P01116-2 G12D): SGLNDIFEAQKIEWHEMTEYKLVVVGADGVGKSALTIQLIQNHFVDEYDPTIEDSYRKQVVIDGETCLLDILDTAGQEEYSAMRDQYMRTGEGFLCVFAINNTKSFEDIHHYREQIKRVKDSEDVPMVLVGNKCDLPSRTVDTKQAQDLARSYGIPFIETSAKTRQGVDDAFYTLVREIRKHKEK
- ASSAY SUMMARY: Protein-protein interaction (PPI) HTRF assay KRAS G12D/RAF1
- Format: binding
- REPORTED CONDITIONS: Table 4
pIC50: −log10 of the molar value.

>  <MOLECULE>
N#Cc1c(N2C[C@H]3CC[C@@H](C2)N3)nc(OCC2(CN3CCOCC3)CC2)nc1N1CC2(C1)c1ccccc1CCC2O (stereo partly drawn)

>  <pIC50>
< 4.00

$$$$
>  <MOLECULE>
CN1CCc2c(cccc2Oc2nc(N3C[C@H]4CC[C@@H](C3)N4)c(C#N)c(N3CC4(CCc5sc(N)c(C#N)c54)C3)n2)C1

>  <pIC50>
4.00 to 5.00

$$$$
>  <MOLECULE>
CN1CCN(CC2(COc3nc(N4C[C@H]5CC[C@@H](C4)N5)c(C#N)c(N4CC5(CCc6sc(N)c(C#N)c65)C4)n3)CC2)CC1=O

>  <pIC50>
6.00 to 7.00

$$$$
>  <MOLECULE>
N#Cc1c(N2C[C@H]3CC[C@@H](C2)N3)nc(OCC2(CN3CCC(F)(F)CC3)CC2)nc1N1CC2(CCc3sc(N)c(C#N)c32)C1

>  <pIC50>
6.00 to 7.00

$$$$
>  <MOLECULE>
N#Cc1c(N2C[C@H]3CC[C@@H](C2)N3)nc(OCC2(CN3CCOCC3)CC2)nc1N1CC2(CCc3sc(N)nc32)C1

>  <pIC50>
5.00 to 6.00

$$$$

Record pIC50 for all entries; do not skip any.
1. CN(C)C(=O)c1nn2c(c1Cl)CN(c1nc(OC[C@@]34CCCN3C[C@H](F)C4)nc(N3CC4(CCc5sc(N)c(C#N)c54)C3)c1C#N)CC(F)(F)C2
2. CN(C)C(=O)c1nn2c(c1Cl)CN(c1nc(OCC3(CN4CCOCC4)CC3)nc(N3CC4(CCc5sc(N)c(C#N)c54)C3)c1C#N)CCC2
3. N#Cc1c(N2C[C@H]3CC[C@@H](C2)N3)nc(OCC2(CN3C[C@@H]4C[C@H]3CO4)CC2)nc1N1CC2(CCc3sc(N)c(C#N)c32)C1
4. C=C1CN2CCCC2(COc2nc(N3CCCn4nc(C(=O)N(C)C)c(Cl)c4C3)c(C#N)c(N3CC4(CCc5sc(N)c(C#N)c54)C3)n2)C1 (stereo not drawn)
5. N#Cc1c(N2CCCC(O)CC2)nc(OC[C@@]23CCCN2C[C@H](F)C3)nc1N1CC2(CCc3sc(N)c(C#N)c32)C1 (stereo partly drawn)
6. N#Cc1c(N2C[C@H]3CC[C@@H](C2)N3)nc(OCC2(CN3CCOCC3)COC2)nc1N1CC2(CCc3sc(N)c(C#N)c32)C1
7. CN(C)CC1(COc2nc(N3C[C@H]4CC[C@@H](C3)N4)c(C#N)c(N3CC4(CCc5sc(N)c(C#N)c54)C3)n2)COC1

## Result
6.00 to 7.00
5.00 to 6.00
6.00 to 7.00
6.00 to 7.00
5.00 to 6.00
5.00 to 6.00
6.00 to 7.00

Record pIC50 for all entries; do not skip any.
1. Cn1c(-c2nn3c(c2Cl)CN(c2nc(OC[C@@]45CCCN4C[C@H](F)C5)nc(N4CC5(CCc6sc(N)c(C#N)c65)C4)c2C#N)CCC3)nc2c(F)cccc21
2. Cn1nccc1COc1nc(N2C[C@H]3CC[C@@H](C2)N3)c(C#N)c(N2CC3(CCc4sc(N)c(C#N)c43)C2)n1
3. N#Cc1c(N2C[C@H]3CC[C@@H](C2)N3)nc(OCC2(CN3CCOCC3)CC2(F)F)nc1N1CC2(CCc3sc(N)c(C#N)c32)C1 (stereo partly drawn)
4. N#Cc1c(N2C[C@H]3CC[C@@H](C2)N3)nc(OCC2(CN3CCOCC3)CC2)nc1N1CC2(CCc3sc(N)c(C#N)c32)C1
5. N#Cc1c(N2C[C@H]3CC[C@@H](C2)N3)nc(OCC2(CN3CCS(=O)(=O)CC3)CC2)nc1N1CC2(CCc3sc(N)c(C#N)c32)C1
6. N#Cc1c(N2C[C@H]3CC[C@@H](C2)N3)nc(OCC2(CN3CCC(F)CC3)CC2)nc1N1CC2(CCc3sc(N)c(C#N)c32)C1
7. N#Cc1c(N2C[C@H]3CC[C@@H](C2)N3)nc(OCC2(CN3CCOCC3)CC2)nc1N1CC2(C1)c1c(sc(N)c1C#N)CC2F (stereo partly drawn)
8. N#Cc1c(N)sc2c1C1(CC2)CN(c2nc(OC[C@@]34CCCN3C[C@H](F)C4)nc(N3C[C@H]4CC[C@@H](C3)N4)c2F)C1

## Result
1. 4.00 to 5.00
2. 4.00 to 5.00
3. 5.00 to 6.00
4. > 7.00
5. 5.00 to 6.00
6. 6.00 to 7.00
7. 6.00 to 7.00
8. 6.00 to 7.00
